Target: SMYD3 (Homo sapiens (Human))
Test: SMYD3 biochemical assay (SPA, 3H-SAM methylation of MEKK2 protein substrate)
Settings: Table 2A; read-out: SMYD3 Biochem IC50
Structures can show the parent of a compound that is named as a salt.
Measured pIC50 by item
Scale: pIC50 equals -log10([C]), with [C] in mol/L.

NC1CCN(S(=O)(=O)N2[C@@H]3CC[C@H]2C[C@@H](NC(=O)c2cc(C4CC4)on2)C3)CC1 [Cpd. No. 532, hydrochloride] = 9.05

Can you share its pIC50? I mean this compound: O=C(N[C@H]1C[C@H]2CC[C@@H](C1)N2S(=O)(=O)N1CC2(CCNCC2)C1)c1cc(C2CC2)on1 [Cpd. No. 559]
8.33

Can you share its pIC50? I mean this compound: O=C(N[C@H]1C[C@H]2CC[C@@H](C1)N2S(=O)(=O)N1CC2CC(C1)N2)c1cc(C2CC2)on1 [compound 571]
8.12

----------
Measured pIC50 by item
Molecular target: UniProtKB Q9H7B4
Assay: SMYD3 biochemical assay (SPA, 3H-SAM methylation of MEKK2 protein substrate)
Details: Table 2A; read-out: SMYD3 Biochem IC50
Scale: pIC50 equals -log10([C]), with [C] in mol/L.

// worked examples, pIC50 included
CNC1CCN(S(=O)(=O)N2CC[C@H](NC(=O)c3cc(C4CC4)on3)C[C@@H]2C)CC1 [compound 535] = 8.92
C[C@H]1C[C@@H](NC(=O)c2cc(C3CC3)on2)CCN1S(=O)(=O)N1C[C@@H]2C[C@H]1CN2C [compound 592] = 7.94
C[C@H]1CN(S(=O)(=O)N2CCC(N)CC2)CC[C@H]1NC(=O)c1cc(C2CC2)on1 [compound 567] = 8.21

Can you share its pIC50? I mean this molecule: C[C@@H]1C[C@H](NC(=O)c2cc(C3CC3)on2)CCN1S(=O)(=O)CC1CCN(C)CC1 [compound 568]
8.20

Can you share its pIC50? I mean this molecule: C[C@H]1CN(S(=O)(=O)N2CC[C@H](NC(=O)c3cc(C4CC4)on3)C[C@@H]2C)CCN1 [compound 572]
8.11

Can you share its pIC50? I mean this molecule: C[C@H]1C[C@@H](NC(=O)c2cc(C3CC3)on2)CCN1S(=O)(=O)CC1CCN(CCO)CC1 [compound 538]
8.89

Can you share its pIC50? I mean this molecule: CC(C)N1CCC(CS(=O)(=O)N2CC[C@H](NC(=O)c3cc(C4CC4)on3)C[C@@H]2C)CC1 [compound 550]
8.59

Can you share its pIC50? I mean this molecule: CC(C)N1CCC(CS(=O)(=O)N2CC[C@@H](NC(=O)c3cc(C4CC4)on3)C[C@H]2C)CC1 [compound 607]
7.75

Can you share its pIC50? I mean this molecule: COCCCN1CCC(CS(=O)(=O)N2[C@@H]3CC[C@H]2C[C@@H](NC(=O)c2cc(C4CC4)on2)C3)CC1 [compound 542]
8.80

Can you share its pIC50? I mean this molecule: CN(CCN)CCCS(=O)(=O)N1[C@@H]2CC[C@H]1C[C@@H](NC(=O)c1cc(C3CC3)on1)C2 [compound 586]
7.97

Can you share its pIC50? I mean this molecule: C[C@H]1C[C@@H](NC(=O)c2cc(C3CC3)on2)CCN1S(=O)(=O)N1CCC(N)CC1 [Cpd. No. 529, trifluoroacetic acid]
9.10

Can you share its pIC50? I mean this molecule: C[C@H]1C[C@@H](NC(=O)c2cc(C3CC3)on2)CCN1S(=O)(=O)N1CCC(N(C)C)CC1 [compound 545]
8.70

Can you share its pIC50? I mean this molecule: NCCNCCS(=O)(=O)N1[C@@H]2CC[C@H]1C[C@@H](NC(=O)c1cc(C3CC3)on1)C2 [compound 596]
7.89
